B1: DLC1 (parent)
chain: NDDSADYQHFLQDCVDGLFKEVKE

Variants of: B1
Assay: protein stability index of a GFP-peptide fusion (GPS, HEK-293T) (PSI 1-6); higher = more stable;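 also: lentivirally expressed fusions sorted by FACS into six bins by GFP to DsRed ratio, PSI derived from sequencing read proportions per bin multiplied by bin number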
Details: c terminus: a fixed tail appended
# reported protein stability index; entries follow
Keep it simple and answer with nothing but the number.

# variant_designation, protein stability index
records = [
    ("E24Q", 2.51),
    ("Y7M", 2.08),
    ("D16T", 3.28),
    ("V15I", 2.68),
]

Notebook: "Y7S" , protein stability index read as 3.89

Notebook: "D3Y" , protein stability index read as 2.24

Notebook: "F10P" , protein stability index read as 4.36
